# Test system: normal cell line WI-38
# assayName: SRB cytotoxicity assay, normal cell line WI-38
# Format: cell-based
# studyConditions: Homo sapiens, WI-38, mean ± SD of three experiments
attributeMeasured: pIC50
Units for pIC50: none; it is -log10 of a concentration expressed in mol/L.

# example entries with known answers
mol=COc1ccc(-c2cc(-c3ccc(OCc4ccc(F)cc4)cc3)[nH]c(=O)c2C#N)cc1 measurement=3.99
mol=N#Cc1c(-c2ccc(Br)cc2)cc(-c2ccc(OCc3ccc(F)cc3)cc2)[nH]c1=O measurement=3.74
mol=N#Cc1c(-c2ccccc2)cc(-c2ccc(OCc3ccc(F)cc3)cc2)nc1N measurement=3.78
mol=N#Cc1c(-c2ccc(Br)cc2)cc(-c2ccc(OCc3ccc(F)cc3)cc2)nc1N measurement=3.98

q: Item: "N#Cc1c(-c2ccc(Cl)cc2)cc(-c2ccc(OCc3ccc(F)cc3)cc2)[nH]c1=S" Test system: normal cell line WI-38 Read-out: pIC50 Value: ?
a: 4.05

q: Lookup: pIC50 / normal cell line WI-38 / "N#Cc1c(-c2ccc(F)cc2)cc(-c2ccc(OCc3ccc(F)cc3)cc2)[nH]c1=S"
a: 3.69

q: Any idea what pIC50 came out for "N#Cc1c(-c2ccc(F)cc2)cc(-c2ccc(OCc3ccc(F)cc3)cc2)nc1N" on normal cell line WI-38?
a: 3.90

q: State its pIC50 on normal cell line WI-38: "N#Cc1c(-c2ccccc2)cc(-c2ccc(OCc3ccc(F)cc3)cc2)[nH]c1=S"
a: 4.01
